# system: h-P2Y2 (Homo sapiens, UniProt P41231)
# Construct: host or cells: human 1321N1 astrocytoma cells, stably transfected
# Sequence (P41231 whole entry): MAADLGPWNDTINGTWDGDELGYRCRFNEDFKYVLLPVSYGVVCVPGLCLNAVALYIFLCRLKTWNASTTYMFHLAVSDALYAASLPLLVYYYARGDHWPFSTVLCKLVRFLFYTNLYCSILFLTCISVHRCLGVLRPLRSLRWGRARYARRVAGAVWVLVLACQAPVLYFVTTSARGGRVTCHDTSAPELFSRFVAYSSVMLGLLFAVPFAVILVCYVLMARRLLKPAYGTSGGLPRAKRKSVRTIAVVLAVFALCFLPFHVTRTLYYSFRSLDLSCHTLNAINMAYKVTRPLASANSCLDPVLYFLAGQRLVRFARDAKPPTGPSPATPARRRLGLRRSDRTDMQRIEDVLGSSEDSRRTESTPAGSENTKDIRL
# procedure.details: Calcium mobilization assay, h-P2Y2 transfected 1321N1 astrocytoma cells
# Type: cell-based
# particulars: 1321-N1; final conc of 100 μM; 500 μM ATP

| entry.smiles | inhibition at 100 µM |
| --- | --- |
| O=C(NS(=O)(=O)c1ccc(Cl)cc1)n1c(-c2ccccc2)nc2ccccc21 | 21% |
| O=C(NS(=O)(=O)c1ccccc1)n1c(-c2ccccc2)nc2ccccc21 | 37% |
| COc1ccc(S(=O)(=O)NC(=O)n2c(Cl)nc3ccccc32)cc1 | 12% |
| Nc1nc2ccccc2n1C(=O)NS(=O)(=O)c1ccc(-c2ccccc2)cc1 | 20% |
| COc1nc2ccccc2n1C(=O)NS(=O)(=O)c1ccc(Cl)cc1 | 19% |
